Recorded values, source paper PMC8924211.

Target: T1, SNAP-GAL2R H252^6.51A (human, UniProt O43603 1-387, H252^6.51A, Lumi4-Tb on the SNAP tag)
T1 construct: also called H252A; source: HEK293, transfected, on cells; not shown: SNAP tag, N-terminal, kept
T1 sequence (looked up): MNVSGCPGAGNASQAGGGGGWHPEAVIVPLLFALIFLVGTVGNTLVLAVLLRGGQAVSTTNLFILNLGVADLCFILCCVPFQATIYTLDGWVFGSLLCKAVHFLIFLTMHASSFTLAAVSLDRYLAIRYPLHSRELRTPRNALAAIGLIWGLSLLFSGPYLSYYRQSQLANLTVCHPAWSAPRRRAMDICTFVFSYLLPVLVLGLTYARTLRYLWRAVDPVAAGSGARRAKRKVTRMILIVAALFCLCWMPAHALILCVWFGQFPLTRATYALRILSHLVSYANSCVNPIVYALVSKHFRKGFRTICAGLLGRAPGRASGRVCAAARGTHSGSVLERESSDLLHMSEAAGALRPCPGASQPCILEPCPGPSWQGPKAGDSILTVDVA
Assay: AlphaScreen or HTRF; saturation binding: HEK293 cells transfected with SNAP-tagged receptor (WT or mutant) and labelled with SNAP-Lumi4-Tb, incubated with increasing concentrations of galanin-A2 in the presence or absence of 100 uM unlabeled galanin, 1 h at room temperature; HTRF ratio 665 nm/620 nm
Details: one partner purified
Parameter Measured: pKd
Lab note — pKd values are minus log10 of concentrations in M.

Input line: Assign pKd to the following record: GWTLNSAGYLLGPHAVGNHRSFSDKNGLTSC (dye A2 on the additional C-terminal cysteine, numbers count on: the mature protein; additional cysteine at the C-terminal end of the peptide, carries the dye A2; source: synthetic peptide (synthesized by Vazyme, China))
Output line: 6.61
